tested on: HOP-62 NSCLC; test: NCI tumour cell line growth inhibition, 48 h
measured_quantity: TGI

# TGI of Cc1cc2c(cc1C)[n+](=O)c(C(=O)C/C(=N/NC(=O)CC#N)C(=O)Nc1ccccc1C(F)(F)F)c(C)n2[O-] = > 100 µM

# TGI of O=c1[nH]ncc(Br)c1Br = 18.1 µM

# TGI of CN(C)CCn1c(=O)c2ccc(NCCCN(C)CCCNc3ccc4c(=O)n(CCN(C)C)c(=O)n5c6ccc([N+](=O)[O-])cc6c(=O)c3c45)c3c(=O)c4cc([N+](=O)[O-])ccc4n(c1=O)c23 = 0.842 µM

# TGI of CC/C(=C(/c1ccc(O)cc1)c1ccc(OCCNC)cc1)c1ccccc1 = 4.44 µM

# TGI of CCOC(=O)C(CC#Cc1ccc(C#CCC(NC(C)=O)C(=O)OCC)cc1)NC(C)=O (stereo unspecified) = > 100 µM

# TGI of CC1=CC(=Nc2ccc(N(CCCl)CCCl)cc2)C=C(C)C1=O = 7.37 µM
